test: refractive index (Na D-line) (dimensionless); settings: 293.1 K; 101.33 kPa; Liquid; Standard Abbe refractometry
EXPERIMENTAL_READOUT: refractive index
Simply state the number, no unit and no words.

Before answering, review these 3 worked examples.
CCCC[n+]1cc(CC)ccc1C.O=S(=O)([N-]S(=O)(=O)C(F)(F)F)C(F)(F)F ... 1.4552
CCCCCCCC[n+]1cc(C)cc(C)c1C.O=S(=O)([N-]S(=O)(=O)C(F)(F)F)C(F)(F)F ... 1.4617
CCCCCCCC[n+]1cc(C)cc(C)c1.N#C[S-] [3,5-dimethyl-1-octylpyridinium thiocyanate] ... 1.5415

Given the compound CCCCCCCC[n+]1cc(C)cc(C)c1C.[I-] [2,3,5-trimethyl-1-octylpyridinium iodide] , what is its reported refractive index?
1.5776

Given the compound `CCCC[n+]1cccc(C)c1C.O=S(=O)([N-]S(=O)(=O)C(F)(F)F)C(F)(F)F` , what is its reported refractive index?
1.4497

Given the compound `CCCC[n+]1cc(C)cc(C)c1C.O=S(=O)([N-]S(=O)(=O)C(F)(F)F)C(F)(F)F` , what is its reported refractive index?
1.4583

Given the compound `CCCC[n+]1cc(C)cc(C)c1.O=S(=O)([N-]S(=O)(=O)C(F)(F)F)C(F)(F)F` , what is its reported refractive index?
1.4559

Given the compound `CCCCCCCC[n+]1cccc(C)c1C.O=S(=O)([O-])C(F)(F)F` , what is its reported refractive index?
1.4725

====

conditions: Glass; DTA
Numbers after ± are expanded uncertainties.
Examples of compounds with documented Glass transition temperature follow.
In your response, the unit should come after the numeric value.

Before answering, review these 2 worked examples.
CCCC[n+]1cccc(C)c1C.N#C[N-]C#N [1-butyl-2,3-dimethylpyridinium dicyanamide] ... -72.0 ± 2 °C
CCCCCCCC[n+]1cccc(C)c1C.O=S(=O)([N-]S(=O)(=O)C(F)(F)F)C(F)(F)F ... -70.0 ± 2 °C

Given the compound `CCCC[n+]1cccc(C)c1C.O=S(=O)([O-])C(F)(F)F` , what is its reported Glass transition temperature?
-69.0 ± 2 °C

Given the compound CCCCCCCC[n+]1cc(CC)ccc1C.[I-] [5-ethyl-2-methyl-1-octylpyridinium iodide] , what is its reported Glass transition temperature?
-33.0 ± 2 °C

Given the compound CCCC[n+]1cc(C)cc(C)c1.N#C[N-]C#N [1-butyl-3,5-dimethylpyridinium dicyanamide] , what is its reported Glass transition temperature?
-80.0 ± 2 °C

Given the compound `CCCCCCCC[n+]1cc(C)cc(C)c1.O=S(=O)([N-]S(=O)(=O)C(F)(F)F)C(F)(F)F` , what is its reported Glass transition temperature?
-78.0 ± 2 °C

Given the compound CCCC[n+]1cc(C)cc(C)c1.N#C[S-] [1-butyl-3,5-dimethylpyridinium thiocyanate] , what is its reported Glass transition temperature?
-57.0 ± 2 °C

Given the compound CCCCCCCC[n+]1cc(C)cc(C)c1C.[I-] [2,3,5-trimethyl-1-octylpyridinium iodide] , what is its reported Glass transition temperature?
-31.0 ± 2 °C

====

experiment: Molar enthalpy of transition or fusion; conditions: Crystal; DSC
EXPERIMENTAL_READOUT: Molar enthalpy of transition or fusion (kcal/mol)
Express your answer in kcal/mol, writing the number without its unit.

CCCCCCCC[n+]1cc(C)cc(C)c1.N#C[S-] [3,5-dimethyl-1-octylpyridinium thiocyanate] ... 1.53

Given the molecule CCCCCCCC[n+]1cc(C)cc(C)c1.[I-] [3,5-dimethyl-1-octylpyridinium iodide] , what is its reported Molar enthalpy of transition or fusion?
6.08

Given the molecule `CCCC[n+]1cc(C)cc(C)c1C.O=S(=O)([O-])C(F)(F)F` , what is its reported Molar enthalpy of transition or fusion?
5.01

Given the molecule CCCC[n+]1cc(C)cc(C)c1.N#C[N-]C#N [1-butyl-3,5-dimethylpyridinium dicyanamide] , what is its reported Molar enthalpy of transition or fusion?
0.92

Given the molecule `CCCC[n+]1cc(C)cc(C)c1.O=S(=O)([O-])C(F)(F)F` , what is its reported Molar enthalpy of transition or fusion?
6.81

Given the molecule CCCCCCCC[n+]1cc(C)cc(C)c1.F[B-](F)(F)F [3,5-dimethyl-1-octylpyridinium tetrafluoroborate] , what is its reported Molar enthalpy of transition or fusion?
6.71

Given the molecule CCCCCCCC[n+]1cc(CC)ccc1C.[I-] [5-ethyl-2-methyl-1-octylpyridinium iodide] , what is its reported Molar enthalpy of transition or fusion?
7.38

Given the molecule CCCCCCCC[n+]1cc(C)cc(C)c1C.N#C[S-] [2,3,5-trimethyl-1-octylpyridinium thiocyanate] , what is its reported Molar enthalpy of transition or fusion?
3.5

Given the molecule `CCCC[n+]1cccc(C)c1C.O=S(=O)([O-])C(F)(F)F` , what is its reported Molar enthalpy of transition or fusion?
4.03

Given the molecule `CCCCCCCC[n+]1cc(C)cc(C)c1.O=S(=O)([O-])C(F)(F)F` , what is its reported Molar enthalpy of transition or fusion?
5.93

Given the molecule CCCC[n+]1cc(C)cc(C)c1.N#C[S-] [1-butyl-3,5-dimethylpyridinium thiocyanate] , what is its reported Molar enthalpy of transition or fusion?
3.83

====

conditions: Glass; DTA
EXPERIMENTAL_READOUT: Glass transition temperature (°C)
Express your answer in °C, writing the number without its unit.

CCCCCCCC[n+]1cc(C)cc(C)c1C.N#C[S-] [2,3,5-trimethyl-1-octylpyridinium thiocyanate] ... -58.0
CCCCCCCC[n+]1cccc(C)c1C.N#C[S-] [2,3-dimethyl-1-octylpyridinium thiocyanate] ... -65.0
CCCC[n+]1cc(C)cc(C)c1.O=S(=O)([N-]S(=O)(=O)C(F)(F)F)C(F)(F)F ... -73.0
CCCCCCCC[n+]1cc(CC)ccc1C.O=S(=O)([N-]S(=O)(=O)C(F)(F)F)C(F)(F)F ... -78.0
CCCCCCCC[n+]1cc(C)cc(C)c1.N#C[N-]C#N [3,5-dimethyl-1-octylpyridinium dicyanamide] ... -78.0
CCCC[n+]1cc(C)cc(C)c1C.O=S(=O)([N-]S(=O)(=O)C(F)(F)F)C(F)(F)F ... -74.0

Given the molecule `CCCCCCCC[n+]1cc(C)cc(C)c1C.O=S(=O)([N-]S(=O)(=O)C(F)(F)F)C(F)(F)F` , what is its reported Glass transition temperature?
-72.0

Given the molecule CCCCCCCC[n+]1cc(C)cc(C)c1.[I-] [3,5-dimethyl-1-octylpyridinium iodide] , what is its reported Glass transition temperature?
-41.0

Given the molecule `CCCCCCCC[n+]1cc(C)cc(C)c1C.O=S(=O)([O-])C(F)(F)F` , what is its reported Glass transition temperature?
-56.0

====

settings: Crystal; DTA
EXPERIMENTAL_READOUT: Normal melting temperature (°C)
Express your answer in °C, writing the number without its unit.

Before answering, review these 3 worked examples.
CCCC[n+]1cc(C)cc(C)c1C.O=S(=O)([O-])C(F)(F)F ... 74.0
CCCCCCCC[n+]1cc(CC)ccc1C.N#C[N-]C#N [5-ethyl-2-methyl-1-octylpyridinium dicyanamide] ... 53.0
CCCCCCCC[n+]1cc(C)cc(C)c1.N#C[S-] [3,5-dimethyl-1-octylpyridinium thiocyanate] ... -38.0

Given the compound CCCCCCCC[n+]1cc(CC)ccc1C.[I-] [5-ethyl-2-methyl-1-octylpyridinium iodide] , what is its reported Normal melting temperature?
87.0

Given the compound `CCCC[n+]1cccc(C)c1C.O=S(=O)([O-])C(F)(F)F` , what is its reported Normal melting temperature?
17.0

Given the compound `CCCC[n+]1cc(C)cc(C)c1.O=S(=O)([O-])C(F)(F)F` , what is its reported Normal melting temperature?
91.0

Given the compound CCCCCCCC[n+]1cc(C)cc(C)c1.F[B-](F)(F)F [3,5-dimethyl-1-octylpyridinium tetrafluoroborate] , what is its reported Normal melting temperature?
56.0

Given the compound `CCCCCCCC[n+]1cc(C)cc(C)c1.O=S(=O)([O-])C(F)(F)F` , what is its reported Normal melting temperature?
76.0

====

conditions: 293.1 K; 101.33 kPa; Liquid; Pycnometric method
Numbers after ± are expanded uncertainties.
Examples of compounds with documented mass density follow.
In your response, the unit should come after the numeric value.

Before answering, review these 4 worked examples.
CCCC[n+]1cccc(C)c1C.O=S(=O)([O-])C(F)(F)F ... 1370 ± 20 kg/m3
CCCCCCCC[n+]1cc(C)cc(C)c1C.O=S(=O)([N-]S(=O)(=O)C(F)(F)F)C(F)(F)F ... 1280 ± 20 kg/m3
CCCC[n+]1cccc(C)c1C.O=S(=O)([N-]S(=O)(=O)C(F)(F)F)C(F)(F)F ... 1370 ± 20 kg/m3
CCCCCCCC[n+]1cc(C)cc(C)c1.O=S(=O)([N-]S(=O)(=O)C(F)(F)F)C(F)(F)F ... 1280 ± 20 kg/m3

Given the compound CCCCCCCC[n+]1cc(C)cc(C)c1.N#C[N-]C#N [3,5-dimethyl-1-octylpyridinium dicyanamide] , what is its reported mass density?
1000 ± 20 kg/m3

Given the compound `CCCC[n+]1cc(C)cc(C)c1.O=S(=O)([N-]S(=O)(=O)C(F)(F)F)C(F)(F)F` , what is its reported mass density?
1390 ± 20 kg/m3

Given the compound `CCCC[n+]1cc(C)cc(C)c1C.O=S(=O)([N-]S(=O)(=O)C(F)(F)F)C(F)(F)F` , what is its reported mass density?
1370 ± 20 kg/m3

Given the compound `CCCC[n+]1cc(C)cc(C)c1.O=S(=O)([O-])C(F)(F)F` , what is its reported mass density?
1390 ± 20 kg/m3

Given the compound CCCCCCCC[n+]1cccc(C)c1C.N#C[S-] [2,3-dimethyl-1-octylpyridinium thiocyanate] , what is its reported mass density?
1020 ± 20 kg/m3

Given the compound `CCCCCCCC[n+]1cccc(C)c1C.O=S(=O)([O-])C(F)(F)F` , what is its reported mass density?
1180 ± 20 kg/m3

Given the compound `CCCCCCCC[n+]1cc(CC)ccc1C.O=S(=O)([N-]S(=O)(=O)C(F)(F)F)C(F)(F)F` , what is its reported mass density?
1280 ± 20 kg/m3
